Values were extracted from ChEMBL document CHEMBL4118228.

What pEC50 was measured for each of the following?
Target: Delta-type opioid receptor (Rattus norvegicus)
Sequence (P33533 whole entry): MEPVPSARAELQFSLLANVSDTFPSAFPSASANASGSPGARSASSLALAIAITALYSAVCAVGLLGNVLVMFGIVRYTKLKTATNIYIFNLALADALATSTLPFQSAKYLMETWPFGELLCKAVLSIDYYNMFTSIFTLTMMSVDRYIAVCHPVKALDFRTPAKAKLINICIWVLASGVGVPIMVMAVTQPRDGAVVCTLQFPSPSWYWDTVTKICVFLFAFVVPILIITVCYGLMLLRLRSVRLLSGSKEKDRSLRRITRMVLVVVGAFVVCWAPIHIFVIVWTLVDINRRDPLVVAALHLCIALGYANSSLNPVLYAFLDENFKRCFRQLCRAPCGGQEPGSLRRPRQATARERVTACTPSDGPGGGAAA
Assay: Agonist activity at rat delta-opioid receptor expressed in HEK293 cells co-expressing Rluc2-EPAC-GFP10 biosenser assessed as inhibition of forskolin-induced cAMP level after 10 mins by fluorescence based assay
Non-standard residues stand in square brackets, D forms with d. Residues, ends and D or L forms follow the SMILES beside them. Phe(2-Ph) = N[C@@H](Cc1ccccc1-c1ccccc1)C(=O)O; Dmt = Cc1cc(O)cc(C)c1C[C@H](N)C(=O)O
// returns pEC50 (minus log10 of molar concentration), number only

Query: Form field: reported pEC50 of CC(C)[C@H](NC(=O)[C@H](CCC(=O)O)NC(=O)[C@H](Cc1ccccc1)NC(=O)[C@@H](C)NC(=O)[C@@H](N)Cc1ccc(O)cc1)C(=O)N[C@H](C(=O)NCC(=O)O)C(C)C
Result: 10.00

Query: Same question, Cc1cc(O)cc(C)c1C[C@H](N)C(=O)N[C@H](C)C(=O)N[C@@H](Cc1ccccc1-c1ccsc1)C(=O)NCC(N)=O this time
Result: 7.25

Query: Same question, Cc1cc(O)cc(C)c1C[C@H](N)C(=O)N[C@H](C)C(=O)N[C@@H](Cc1ccccc1-c1ccccc1)C(=O)NCC(N)=O (H-[Dmt][dA][Phe(2-Ph)]G-NH2) this time
Result: 8.31
